# System: Pyricularia oryzae
# procedure summary: microbe, parasite or virus in culture
# Type: cell-based
# recorded conditions: 0.5 ppm; Use Example 7
I'd appreciate it if you could supply Growth (%) at 0.5 ppm Pyrior values for the items below.
Quick note: give the figure in %, leave out the unit.

Could you tell me which Growth (%) at 0.5 ppm Pyrior is on file for CC#CC(O)(Cn1cncn1)c1ccc(Oc2ccc(Cl)cc2)cc1C(F)(F)F (stereo not drawn) ?
37

Could you tell me which Growth (%) at 0.5 ppm Pyrior is on file for CC(O)(Cn1cncn1)c1ccc(Oc2ccc(Cl)cc2)cc1Cl (stereo not drawn) [compound V18, reference compound] ?
82

Could you tell me which Growth (%) at 0.5 ppm Pyrior is on file for CC(O)(Cn1cncn1)c1ccc(Oc2ccc(Cl)cc2)cc1C(F)(F)F (stereo not drawn) ?
68

Could you tell me which Growth (%) at 0.5 ppm Pyrior is on file for CCC(O)(Cn1cncn1)c1ccc(Oc2ccc(Cl)cc2)cc1C(F)(F)F (stereo not drawn) ?
58

Could you tell me which Growth (%) at 0.5 ppm Pyrior is on file for CCCC(O)(Cn1cncn1)c1ccc(Oc2ccc(Cl)cc2)cc1C(F)(F)F (stereo not drawn) ?
19

Could you tell me which Growth (%) at 0.5 ppm Pyrior is on file for OC(Cn1cncn1)c1ccc(Oc2ccc(Cl)cc2)cc1C(F)(F)F (stereo not drawn) ?
47

Where do these numbers come from? They come from patent US10358426B2.
